# assay overview: in vitro
# test settings: human
Non-standard residues stand in square brackets, D forms with d. Residues, ends and D or L forms follow the SMILES beside them.
reported endpoint: hemolysis at 1 h, 1.56 µM (%)
Numbers only, in %.

* CC(C)C[C@@H](NC(=O)[C@H](N)CCCCN)C(=O)N[C@H](CCCCN)C(=O)N[C@H](CC(C)C)C(=O)N[C@H](CC(C)C)C(=O)N[C@H](CC(C)C)C(=O)N[C@H](CC(C)C)C(=O)N[C@H](CC(C)C)C(=O)N[C@H](CCCCN)C(=O)N[C@H](CC(C)C)C(=O)N[C@H](CCCCN)C(N)=O [KLK] (H-[dK][dL][dK][dL][dL][dL][dL][dL][dK][dL][dK]-NH2; N-terminus assumed) | 10.4

Continue with the compound presented below.
Prompt line: # lookup: hemolysis at 1 h, 1.56 µM of CC(C)C[C@@H](NC(=O)[C@H](N)Cc1c[nH]c2ccccc12)C(=O)N[C@H](Cc1c[nH]c2ccccc12)C(=O)N[C@H](C)C(=O)N[C@H](CC(C)C)C(=O)N[C@H](CC(C)C)C(=O)N[C@H](CCCCN)C(=O)N[C@H](CC(C)C)C(=O)N[C@H](CC(C)C)C(=O)N[C@H](CCCCN)C(=O)N[C@H](CC(C)C)C(=O)N[C@H](CCCCN)C(N)=O [mKLK] (H-[dW][dL][dW][dA][dL][dL][dK][dL][dL][dK][dL][dK]-NH2; N-terminus assumed)
Response line: 0

###

# Test system: S. aureus isolates
# assay overview: Kirby-Bauer disk diffusion antimicrobial susceptibility testing; further: key: R: Resistant; S: Susceptible
# Type: cell-based, Staphylococcus aureus
# test settings: MSSA-1
reported endpoint: Antimicrobial susceptibility testing

* CNC(C)C1CCC(N)C(OC2C(N)CC(N)C(OC3OCC(C)(O)C(NC)C3O)C2O)O1 (stereo not drawn) | S
* CC(=O)NC[C@H]1CN(c2ccc(N3CCOCC3)c(F)c2)C(=O)O1 [LZD, Linezolide] | S
* CO[C@H]1/C=C/O[C@@]2(C)Oc3c(C)c(O)c4c(O)c(c(/C=N/N5CCN(C)CC5)c(O)c4c3C2=O)NC(=O)/C(C)=C\C=C\[C@H](C)[C@H](O)[C@@H](C)[C@@H](O)[C@@H](C)[C@H](OC(C)=O)[C@@H]1C | S

###

# Tested on: S. aureus isolates
# assay overview: Kirby-Bauer disk diffusion antimicrobial susceptibility testing; further: key: R: Resistant; S: Susceptible
# Assay type: cell-based, Staphylococcus aureus
# test settings: MSSA-1
reported endpoint: Antimicrobial susceptibility testing

- CC[C@H]1OC(=O)[C@H](C)[C@@H](O[C@H]2C[C@@](C)(OC)[C@@H](O)[C@H](C)O2)[C@H](C)[C@@H](O[C@@H]2O[C@H](C)C[C@H](N(C)C)[C@H]2O)[C@](C)(O)C[C@@H](C)C(=O)[C@H](C)[C@@H](O)[C@]1(C)O: S
- CC1(C)S[C@@H]2[C@H](NC(=O)[C@H](N)c3ccccc3)C(=O)N2[C@H]1C(=O)O: S
- CO[C@@]1(NC(=O)Cc2cccs2)C(=O)N2C(C(=O)O)=C(COC(N)=O)CS[C@@H]21: S
